- assay comment: 8-day repeat-dose study, tolerability (blood chemistry, hematology, adverse events) in tumor-bearing dogs
- Assay type: in vivo, dog
- protocol conditions: Dog 2; Post: 30 min after last injection on day 8; 10 mg s.c. once daily for 8 days
Where a SMILES comes first, the peptide text is derived from it. [ ]: non-standard residue; d: D form. Hyp = O=C(O)[C@@H]1C[C@@H](O)CN1
readout type: Globulin (g/dL)
API: value field is a number in g/dL; no unit string.

# Globulin lookup, item CC(C)[C@@H]1NC(=O)[C@@H]2C[C@@H](O)CN2C(=O)[C@H]([C@@H](C)O)NC(=O)[C@H](CCCCN)NC(=O)[C@H](CCC(=O)O)NC(=O)[C@H](CC(N)=O)NC(=O)CNC(=O)[C@@H]2C[C@@H](O)CN2C(=O)[C@H](CC(N)=O)NC1=O [AFPep] (cyclo(EKT[Hyp]VN[Hyp]GN))
4

----------
- assay comment: 8-day repeat-dose study, tolerability (blood chemistry, hematology, adverse events) in tumor-bearing dogs
- Type: in vivo, dog
- protocol conditions: Dog 3; Post: 30 min after last injection on day 8; 10 mg s.c. once daily for 8 days
Where a SMILES comes first, the peptide text is derived from it. [ ]: non-standard residue; d: D form. Hyp = O=C(O)[C@@H]1C[C@@H](O)CN1
readout type: Creatine Kinase (U/L)
API: value field is a number in U/L; no unit string.

# Creatine Kinase lookup, item CC(C)[C@@H]1NC(=O)[C@@H]2C[C@@H](O)CN2C(=O)[C@H]([C@@H](C)O)NC(=O)[C@H](CCCCN)NC(=O)[C@H](CCC(=O)O)NC(=O)[C@H](CC(N)=O)NC(=O)CNC(=O)[C@@H]2C[C@@H](O)CN2C(=O)[C@H](CC(N)=O)NC1=O [AFPep] (cyclo(EKT[Hyp]VN[Hyp]GN))
115

----------
- assay comment: 8-day repeat-dose study, tolerability (blood chemistry, hematology, adverse events) in tumor-bearing dogs
- Assay type: in vivo, dog
- protocol conditions: Dog 3; Post: 30 min after last injection on day 8; 10 mg s.c. once daily for 8 days
Where a SMILES comes first, the peptide text is derived from it. [ ]: non-standard residue; d: D form. Hyp = O=C(O)[C@@H]1C[C@@H](O)CN1
readout type: ALP (U/L)
API: value field is a number in U/L; no unit string.

# ALP lookup, item CC(C)[C@@H]1NC(=O)[C@@H]2C[C@@H](O)CN2C(=O)[C@H]([C@@H](C)O)NC(=O)[C@H](CCCCN)NC(=O)[C@H](CCC(=O)O)NC(=O)[C@H](CC(N)=O)NC(=O)CNC(=O)[C@@H]2C[C@@H](O)CN2C(=O)[C@H](CC(N)=O)NC1=O [AFPep] (cyclo(EKT[Hyp]VN[Hyp]GN))
178

----------
- assay comment: Pharmacokinetics in dogs
- Type: in vivo
- protocol conditions: sc; dog; s.c.; 4 mg/kg; plasma LC/MS/MS; read-out: Cmax
Where a SMILES comes first, the peptide text is derived from it. [ ]: non-standard residue; d: D form. Hyp = O=C(O)[C@@H]1C[C@@H](O)CN1
readout type: Cmax (ng/mL)
API: value field is a number in ng/mL; no unit string.

# Cmax lookup, item CC(C)[C@@H]1NC(=O)[C@@H]2C[C@@H](O)CN2C(=O)[C@H]([C@@H](C)O)NC(=O)[C@H](CCCCN)NC(=O)[C@H](CCC(=O)O)NC(=O)[C@H](CC(N)=O)NC(=O)CNC(=O)[C@@H]2C[C@@H](O)CN2C(=O)[C@H](CC(N)=O)NC1=O [AFPep] (cyclo(EKT[Hyp]VN[Hyp]GN))
5800

----------
- assay comment: 8-day repeat-dose study, tolerability (blood chemistry, hematology, adverse events) in tumor-bearing dogs
- Assay type: in vivo, dog
- protocol conditions: Dog 6; Post: 30 min after last injection on day 8; 10 mg s.c. once daily for 8 days
Where a SMILES comes first, the peptide text is derived from it. [ ]: non-standard residue; d: D form. Hyp = O=C(O)[C@@H]1C[C@@H](O)CN1
readout type: Albumin (g/dL)
API: value field is a number in g/dL; no unit string.

# Albumin lookup, item CC(C)[C@@H]1NC(=O)[C@@H]2C[C@@H](O)CN2C(=O)[C@H]([C@@H](C)O)NC(=O)[C@H](CCCCN)NC(=O)[C@H](CCC(=O)O)NC(=O)[C@H](CC(N)=O)NC(=O)CNC(=O)[C@@H]2C[C@@H](O)CN2C(=O)[C@H](CC(N)=O)NC1=O [AFPep] (cyclo(EKT[Hyp]VN[Hyp]GN))
3

----------
- assay comment: 8-day repeat-dose study, tolerability (blood chemistry, hematology, adverse events) in tumor-bearing dogs
- Assay type: in vivo, dog
- protocol conditions: Dog 2; Post: 30 min after last injection on day 8; 10 mg s.c. once daily for 8 days
Where a SMILES comes first, the peptide text is derived from it. [ ]: non-standard residue; d: D form. Hyp = O=C(O)[C@@H]1C[C@@H](O)CN1
readout type: ALP (U/L)
API: value field is a number in U/L; no unit string.

# ALP lookup, item CC(C)[C@@H]1NC(=O)[C@@H]2C[C@@H](O)CN2C(=O)[C@H]([C@@H](C)O)NC(=O)[C@H](CCCCN)NC(=O)[C@H](CCC(=O)O)NC(=O)[C@H](CC(N)=O)NC(=O)CNC(=O)[C@@H]2C[C@@H](O)CN2C(=O)[C@H](CC(N)=O)NC1=O [AFPep] (cyclo(EKT[Hyp]VN[Hyp]GN))
115

----------
- assay comment: 8-day repeat-dose study, tolerability (blood chemistry, hematology, adverse events) in tumor-bearing dogs
- Type: in vivo, dog
- protocol conditions: Dog 6; Post: 30 min after last injection on day 8; 10 mg s.c. once daily for 8 days
Where a SMILES comes first, the peptide text is derived from it. [ ]: non-standard residue; d: D form. Hyp = O=C(O)[C@@H]1C[C@@H](O)CN1
readout type: Glucose (mg/dL)
API: value field is a number in mg/dL; no unit string.

# Glucose lookup, item CC(C)[C@@H]1NC(=O)[C@@H]2C[C@@H](O)CN2C(=O)[C@H]([C@@H](C)O)NC(=O)[C@H](CCCCN)NC(=O)[C@H](CCC(=O)O)NC(=O)[C@H](CC(N)=O)NC(=O)CNC(=O)[C@@H]2C[C@@H](O)CN2C(=O)[C@H](CC(N)=O)NC1=O [AFPep] (cyclo(EKT[Hyp]VN[Hyp]GN))
81

----------
- assay comment: 8-day repeat-dose study, AFPep blood levels in tumor-bearing dogs
- Assay type: in vivo, dog
- protocol conditions: female, dog, blood, sc, 10 mg, summary of Table 6; 30 minutes post-AFPep; 10 mg s.c. once a day for 8 days; 6 tumor-bearing dogs; read-out: AFPep blood levels
Where a SMILES comes first, the peptide text is derived from it. [ ]: non-standard residue; d: D form. Hyp = O=C(O)[C@@H]1C[C@@H](O)CN1
readout type: level at 0.5 h

# level at 0.5 h lookup, item CC(C)[C@@H]1NC(=O)[C@@H]2C[C@@H](O)CN2C(=O)[C@H]([C@@H](C)O)NC(=O)[C@H](CCCCN)NC(=O)[C@H](CCC(=O)O)NC(=O)[C@H](CC(N)=O)NC(=O)CNC(=O)[C@@H]2C[C@@H](O)CN2C(=O)[C@H](CC(N)=O)NC1=O [AFPep] (cyclo(EKT[Hyp]VN[Hyp]GN))
2000 to 3000 ng/mL

----------
- assay comment: 8-day repeat-dose study, tolerability (blood chemistry, hematology, adverse events) in tumor-bearing dogs
- Format: in vivo, dog
- protocol conditions: Dog 6; Post: 30 min after last injection on day 8; 10 mg s.c. once daily for 8 days
Where a SMILES comes first, the peptide text is derived from it. [ ]: non-standard residue; d: D form. Hyp = O=C(O)[C@@H]1C[C@@H](O)CN1
readout type: Bicarbonate
A bare number is not enough; add the unit after it.

# Bicarbonate lookup, item CC(C)[C@@H]1NC(=O)[C@@H]2C[C@@H](O)CN2C(=O)[C@H]([C@@H](C)O)NC(=O)[C@H](CCCCN)NC(=O)[C@H](CCC(=O)O)NC(=O)[C@H](CC(N)=O)NC(=O)CNC(=O)[C@@H]2C[C@@H](O)CN2C(=O)[C@H](CC(N)=O)NC1=O [AFPep] (cyclo(EKT[Hyp]VN[Hyp]GN))
21 mmol/L

----------
- assay comment: 8-day repeat-dose study, tolerability (blood chemistry, hematology, adverse events) in tumor-bearing dogs
- Type: in vivo, dog
- protocol conditions: Dog 1; Post: 30 min after last injection on day 8; 10 mg s.c. once daily for 8 days
Where a SMILES comes first, the peptide text is derived from it. [ ]: non-standard residue; d: D form. Hyp = O=C(O)[C@@H]1C[C@@H](O)CN1
readout type: HCT (%)
API: value field is a number in %; no unit string.

# HCT lookup, item CC(C)[C@@H]1NC(=O)[C@@H]2C[C@@H](O)CN2C(=O)[C@H]([C@@H](C)O)NC(=O)[C@H](CCCCN)NC(=O)[C@H](CCC(=O)O)NC(=O)[C@H](CC(N)=O)NC(=O)CNC(=O)[C@@H]2C[C@@H](O)CN2C(=O)[C@H](CC(N)=O)NC1=O [AFPep] (cyclo(EKT[Hyp]VN[Hyp]GN))
39
